target: Leucine-rich repeat serine/threonine-protein kinase 2 (Homo sapiens, UniProt Q5S007, G2019S); experiment: Inhibition of GST-tagged truncated human LRRK2 G2019S mutant using fluorescein labeled LRRKtide peptide as substrate preincubated for 15 mins followed by substrate addition measured after 90 mins in presence of ATP at Km concentration by TR-FRET Lanthascreen assay
Sequence (Q5S007 whole entry G2019S, the tested form may be a part): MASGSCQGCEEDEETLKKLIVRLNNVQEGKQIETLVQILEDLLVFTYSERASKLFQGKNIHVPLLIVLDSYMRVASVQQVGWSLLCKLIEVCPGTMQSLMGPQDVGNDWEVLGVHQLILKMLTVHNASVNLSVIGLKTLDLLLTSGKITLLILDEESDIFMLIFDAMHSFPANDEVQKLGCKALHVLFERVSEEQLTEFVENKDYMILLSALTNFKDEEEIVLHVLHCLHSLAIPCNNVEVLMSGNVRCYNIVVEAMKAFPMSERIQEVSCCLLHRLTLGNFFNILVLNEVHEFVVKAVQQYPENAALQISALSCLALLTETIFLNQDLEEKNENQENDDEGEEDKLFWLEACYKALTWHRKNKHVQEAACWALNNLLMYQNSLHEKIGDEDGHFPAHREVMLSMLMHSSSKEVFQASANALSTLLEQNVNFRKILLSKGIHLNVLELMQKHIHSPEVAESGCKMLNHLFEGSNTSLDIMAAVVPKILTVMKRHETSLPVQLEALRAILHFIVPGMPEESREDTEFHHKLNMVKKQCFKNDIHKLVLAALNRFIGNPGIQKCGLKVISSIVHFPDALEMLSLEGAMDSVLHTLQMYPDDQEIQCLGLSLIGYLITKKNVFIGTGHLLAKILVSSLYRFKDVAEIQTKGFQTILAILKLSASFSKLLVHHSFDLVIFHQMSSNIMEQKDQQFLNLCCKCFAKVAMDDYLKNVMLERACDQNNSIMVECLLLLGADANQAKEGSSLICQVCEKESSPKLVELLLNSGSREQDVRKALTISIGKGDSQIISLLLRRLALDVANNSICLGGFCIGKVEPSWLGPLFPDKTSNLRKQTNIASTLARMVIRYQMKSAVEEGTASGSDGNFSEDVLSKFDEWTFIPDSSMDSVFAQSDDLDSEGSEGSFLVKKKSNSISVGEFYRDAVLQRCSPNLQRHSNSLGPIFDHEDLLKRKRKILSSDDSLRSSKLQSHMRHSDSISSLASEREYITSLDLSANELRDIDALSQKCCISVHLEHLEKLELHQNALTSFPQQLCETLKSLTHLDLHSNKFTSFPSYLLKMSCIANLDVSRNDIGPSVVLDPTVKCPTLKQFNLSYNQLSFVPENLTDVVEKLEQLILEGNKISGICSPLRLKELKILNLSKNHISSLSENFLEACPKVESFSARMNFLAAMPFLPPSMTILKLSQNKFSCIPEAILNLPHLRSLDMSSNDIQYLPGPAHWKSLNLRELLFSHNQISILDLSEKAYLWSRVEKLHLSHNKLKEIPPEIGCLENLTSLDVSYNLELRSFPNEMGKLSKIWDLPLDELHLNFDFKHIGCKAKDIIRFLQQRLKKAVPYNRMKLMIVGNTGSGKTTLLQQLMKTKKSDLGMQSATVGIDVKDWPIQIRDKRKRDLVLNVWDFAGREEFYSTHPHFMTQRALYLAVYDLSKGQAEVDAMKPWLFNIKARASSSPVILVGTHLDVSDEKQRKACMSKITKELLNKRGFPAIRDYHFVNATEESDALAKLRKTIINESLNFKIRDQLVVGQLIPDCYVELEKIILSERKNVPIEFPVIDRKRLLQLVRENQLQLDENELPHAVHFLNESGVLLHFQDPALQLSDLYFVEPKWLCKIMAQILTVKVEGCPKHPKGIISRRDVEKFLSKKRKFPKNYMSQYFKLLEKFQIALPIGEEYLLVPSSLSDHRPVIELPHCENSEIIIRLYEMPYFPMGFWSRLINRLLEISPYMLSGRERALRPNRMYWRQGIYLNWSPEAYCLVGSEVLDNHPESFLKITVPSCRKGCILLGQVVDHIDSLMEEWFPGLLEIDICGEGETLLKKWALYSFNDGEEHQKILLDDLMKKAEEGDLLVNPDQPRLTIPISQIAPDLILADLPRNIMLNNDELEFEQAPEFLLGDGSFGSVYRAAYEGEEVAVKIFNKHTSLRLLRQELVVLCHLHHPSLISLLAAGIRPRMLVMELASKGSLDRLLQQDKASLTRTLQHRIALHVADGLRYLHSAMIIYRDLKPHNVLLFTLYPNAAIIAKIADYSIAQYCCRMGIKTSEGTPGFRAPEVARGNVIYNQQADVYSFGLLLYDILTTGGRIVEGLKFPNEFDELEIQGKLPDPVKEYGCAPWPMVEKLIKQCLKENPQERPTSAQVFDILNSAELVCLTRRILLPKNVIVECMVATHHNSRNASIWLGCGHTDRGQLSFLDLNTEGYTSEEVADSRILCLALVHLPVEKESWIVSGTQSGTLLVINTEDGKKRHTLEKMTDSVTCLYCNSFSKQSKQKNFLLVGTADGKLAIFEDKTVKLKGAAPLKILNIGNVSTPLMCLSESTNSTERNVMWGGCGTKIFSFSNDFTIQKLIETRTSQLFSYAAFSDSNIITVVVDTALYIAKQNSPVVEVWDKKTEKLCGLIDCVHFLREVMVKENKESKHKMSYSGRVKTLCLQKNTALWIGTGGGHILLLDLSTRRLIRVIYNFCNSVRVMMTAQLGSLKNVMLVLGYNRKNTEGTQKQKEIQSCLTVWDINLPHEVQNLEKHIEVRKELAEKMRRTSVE
Would you mind telling me the reported IC50 of each entry?
Give the value, in units of nM, as a plain number.

Q: Any idea what its IC50 is? The compound is OC1(c2cncs2)CCN(c2cc3c(cnn3-c3cnn(C4CC4)c3)cc2Cl)CC1
Ans: 97.5

Q: Would you mind doing C[C@@]1(N2CCN(c3cc4c(cnn4-c4cnn(C56CC(C5)C6)c4)cc3Cl)CC2)CC[C@H]1O as well?
Ans: 154

Q: Follow-up item: Cc1cc2cnn(-c3cnn(C45CC(C4)C5)c3)c2cc1N1CCN([C@@H]2COC[C@@H]2O)CC1
Ans: 259

Q: Here is the next compound: CO[C@H]1COC[C@H]1N1CCN(c2cc3c(cnn3-c3cnn(C45CC(C4)C5)c3)cc2Cl)CC1
Ans: 104

Q: Now the same for [2H]C([2H])([2H])OCC12CC(n3cc(-n4ncc5cc(Cl)c(N6CCN([C@]7(C)COC[C@@H]7O)CC6)cc54)cn3)(C1)C2
Ans: 157
